system: MDA-MB-435; assay: Cytotoxicity against Homo sapiens (human) MDA-MB-435 cells after 48 hr by SRB assay; type: functional; details: MDA-MB-435, 48 h
Field: label. Allowed values: Condition met (GI50 < 20 µM) or Condition not met (GI50 >= 20 µM).

>>> print(df.to_string())
                                   compound           category
0  O=C(NC(=S)NS(=O)(=O)c1ccc(N2N=C3c4ccccc4CC3C2c2cccs2)cc1)c1ccccc1 (centres undefined)  Condition not met
1  O=C1CS/C(=N\S(=O)(=O)c2ccc(N3N=C4c5ccccc5CC4C3c3cccs3)cc2)N1C(=O)c1ccccc1 (centres undefined)  Condition not met
2  O=C(Nc1ccccc1)NS(=O)(=O)c1ccc(-n2nc3c(c2-c2cccs2)Cc2ccccc2-3)cc1  Condition not met
3  O=C(NC1CCCCC1)NS(=O)(=O)c1ccc(-n2nc3c(c2-c2cccs2)Cc2ccccc2-3)cc1  Condition not met
4  O=C(c1ccccc1)n1c(-c2ccccc2)cs/c1=N\S(=O)(=O)c1ccc(N2N=C3c4ccccc4CC3C2c2cccs2)cc1 (centres undefined)  Condition not met
5  NS(=O)(=O)c1ccc(N2N=C3c4ccccc4CC3C2c2cccs2)cc1 (centres undefined)      Condition met
6  O=C(Nc1ccccc1)NS(=O)(=O)c1ccc(N2N=C3c4ccccc4CC3C2c2cccnc2)cc1 (centres undefined)  Condition not met
7  O=S(=O)(NC(=S)Nc1ccccc1)c1ccc(N2N=C3c4ccccc4CC3C2c2cccs2)cc1 (centres undefined)      Condition met
8  NS(=O)(=O)c1ccc(-n2nc3c(c2-c2cccs2)Cc2ccccc2-3)cc1      Condition met

Origin of the recorded values: ChEMBL document CHEMBL3046832
